# experimentalSystem: human B1R receptor (hB1R) (Homo sapiens, UniProt P46663)
# Construct: expressed in transfected cells; host or cells: CHO K1 cells, stably transfected
# Sequence (P46663 whole entry): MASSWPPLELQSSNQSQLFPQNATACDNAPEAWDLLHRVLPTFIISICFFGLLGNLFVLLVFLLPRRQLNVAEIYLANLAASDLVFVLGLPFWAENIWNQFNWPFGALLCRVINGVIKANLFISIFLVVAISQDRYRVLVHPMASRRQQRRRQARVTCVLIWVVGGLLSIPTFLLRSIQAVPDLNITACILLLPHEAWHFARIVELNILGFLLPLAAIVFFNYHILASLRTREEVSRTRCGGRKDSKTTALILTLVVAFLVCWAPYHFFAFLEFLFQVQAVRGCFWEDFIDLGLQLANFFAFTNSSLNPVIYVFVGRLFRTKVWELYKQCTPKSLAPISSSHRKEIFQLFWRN
# testMethodNotes: FLIPR Ca2+ functional study on bradykinin receptor 1, hB1R cells (CHO K1)
# Format: cell-based
# measurementParameters: CHO-K1, 10 μM test substance; CHO K1 cells with human B1R; agonist Lys-Des-Arg9-bradykinin at EC80; read-out: B1R antagonism, human [10 μM] % inhibition
measurementKind: inhibition at 10 µM (%)

> print(dat)
                                        smi  reported
1  COc1cc(C)c(S(=O)(=O)N2CCc3ccc(C(=O)N4CCC5(CC4)CCN(c4ccncc4)CC5)cc3C2)c(C)c1        97
2  O=C(c1ccc2c(c1)CN(C(=O)c1ccc(Cl)s1)CC2)N1CCC2(CC1)CCN(c1ccncc1)CC2       100
3  COc1cc(C)c(S(=O)(=O)N2Cc3ccc(C(=O)N4CCC5(CC4)CCN(c4ccncc4)CC5)cc3C2)c(C)c1       100
4  Cc1cccc(Cl)c1S(=O)(=O)N1CCc2cccc(C(=O)N3CCC4(CC3)CCN(c3ccncc3)CC4)c2C1        99
